# experimental.system: Aurora2 (Homo sapiens, UniProt O14965)
# Construct: Aurora 2: whole recombinant protein comprising an N-terminal histidine tail; His tag (histidine tail) (N)
# Sequence (O14965 1-403): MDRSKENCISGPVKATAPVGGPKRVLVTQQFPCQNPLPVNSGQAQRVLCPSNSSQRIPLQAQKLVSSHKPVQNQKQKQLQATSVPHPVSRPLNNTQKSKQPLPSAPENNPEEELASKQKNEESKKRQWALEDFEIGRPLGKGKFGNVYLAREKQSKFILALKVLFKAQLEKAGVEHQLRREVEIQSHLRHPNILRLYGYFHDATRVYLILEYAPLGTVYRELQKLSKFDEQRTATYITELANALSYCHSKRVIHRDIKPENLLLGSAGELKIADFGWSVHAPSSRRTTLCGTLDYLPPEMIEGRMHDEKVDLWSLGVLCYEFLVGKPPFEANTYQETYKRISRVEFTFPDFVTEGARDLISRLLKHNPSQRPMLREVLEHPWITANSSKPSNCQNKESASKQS
# method.description: Aurora2 enzyme assay, NuMA substrate phosphorylation (Flashplate)
# measurement.conditions: read-out: IC 50 Aurora2
Structures can show the parent of a compound that is named as a salt.
Give pIC50 for every item shown.
// returns pIC50 (minus log10 of molar concentration), number only

Tell me its pIC50 given `O=C(Nc1ccc(-c2ccc3c(NC(=O)c4ccsc4)n[nH]c3c2F)cc1)Nc1ccccc1F` as the entry.
7.64

Tell me its pIC50 given `O=C(Nc1ccc(-c2ccc3c(NC(=O)c4ccsc4)n[nH]c3c2)cc1)Nc1cc(C(F)(F)F)ccc1F` as the entry.
6.77

Tell me its pIC50 given `Cc1cc(-c2ccc3c(NC(=O)c4ccsc4)n[nH]c3c2F)ccc1NC(=O)Nc1cc(C(F)(F)F)ccc1F` as the entry.
6.53

Tell me its pIC50 given Nc1n[nH]c2c(F)c(-c3ccc(NS(=O)(=O)c4cccc(Cl)c4Cl)cc3)ccc12 [Example 8, hydrochloride] as the entry.
7.06

Tell me its pIC50 given `O=C(Nc1ccc(-c2ccc3c(NC(=O)c4ccccc4)n[nH]c3c2F)cc1)Nc1cc(C(F)(F)F)ccc1F` as the entry.
6.46

Tell me its pIC50 given `Cc1ccc(-n2nc(C(C)(C)C)cc2NC(=O)Nc2ccc(-c3ccc4c(NC(=O)c5ccsc5)n[nH]c4c3F)cc2)cc1` as the entry.
6.85

Tell me its pIC50 given `O=CNc1n[nH]c2c(F)c(-c3ccc(NC(=O)Nc4cc(C(F)(F)F)ccc4F)cc3)ccc12` as the entry.
6.28
